Data origin: patent US9000010B2

melting point values by entry

>>> df
                                   molecule     observable   result_value
0  O=C(OCc1cscn1)N1CCC(COc2ccc(Cl)c(Cl)c2)C1 (racemic)  melting point    78 to 80 °C
1  NC(=O)c1cc(COC(=O)N2CCC(CCOc3ccc(F)cc3)CC2)on1  melting point  106 to 108 °C
2  NC(=O)c1cc(COC(=O)N2CC[C@H](COc3ccc4ccccc4c3)C2)on1 (single isomer, unassigned)  melting point  139 to 141 °C

Query molecule follows.
Specify melting point for O=C(OCc1cscn1)N1CCC(COc2ccc3c(F)cccc3c2)C1 (racemic) and stop.
76 to 78 °C
